This collection of values is drawn from ChEMBL document CHEMBL1201862.

Could you please report measured GI50 for the items listed next?
test system: SK-MEL-28; assay: NCI tumour cell line growth inhibition, 48 h
The source made the active and inactive calls. No stated cut-off is given here; in the data, active = GI50 up to about 1.1 µM and inactive = higher.

Use these answered entries as a reference point.
molecule: S=C(S)N1CCN(c2ccccc2)CC1
GI50: 45.9 µM (inactive)
//
molecule: Cc1ccc(-c2cc(-c3ccc(Cl)cc3)nc(/N=C3\C(=O)N(CN4CCOCC4)c4ccc(Cl)cc43)n2)cc1
GI50: 42.4 µM (inactive)
//
molecule: COC(=O)C1(Cc2ccc3c(c2)CCC3)Cc2cc3c(cc2C1=O)CCC3 (centres undefined)
GI50: 37.2 µM (inactive)
//
molecule: CCOC(=O)CC1COc2ccc3c(c21)OCO3 (centres undefined)
GI50: > 100 µM (inactive)
//
molecule: C=C(NC(=O)C(=C)NC(=O)c1ccc2c(n1)-c1coc(n1)C(=C)NC(=O)C(=C)NC(=O)c1nc(oc1C)C(=C)NC(=O)C(C(C)(C)O)NC(=O)C(=C)NC(=O)c1coc(n1)/C(=C/C)NC(=O)[C@H]([C@@H](C)O)NC(=O)c1csc-2n1)C(N)=O (some centres undefined)
GI50: > 87.5 µM (inactive)
//
molecule: CCOC(=O)C1S/C(=N\c2ccccc2)N=C1C (centres undefined)
GI50: > 100 µM (inactive)
//
molecule: COc1cc2c(cc1O)CC1c3c(cc(O)c(OC)c3-2)CCN1C (centres undefined)
GI50: > 100 µM (inactive)
//
molecule: Cc1ccc(/C=C2\NC(=S)N(CN3CCOCC3)C2=O)cc1
GI50: > 100 µM (inactive)

Query molecule follows.
Given the molecule COc1ccc(C2NC3=C(CCCC3)N2)cc1 , what is its reported GI50?
> 100 µM (inactive)

###

tested on: SF-295; assay: NCI tumour cell line growth inhibition, 48 h
Calls of active or inactive are those of the source. No stated cut-off is given here; in the data, active = GI50 up to about 1.1 µM and inactive = higher.
property measured: GI50

molecule: COc1cc2c(cc1O)CC1c3c(cc(O)c(OC)c3-2)CCN1C (stereo unspecified)
GI50: > 100 µM (inactive)

Please give GI50 for each item listed below.
1. CC1OC(OCC2OC(Oc3c(-c4ccc(O)cc4)oc4cc(O)cc(O)c4c3=O)C(OC3OCC(O)(CO)C3O)C(O)C2O)C(O)C(O)C1O (stereo unspecified)
2. C/C=C/C1=C(Cl)C(=O)[C@@H](Cl)[C@@]1(O)C(=O)OC [(+)-CRYPTOSPORIPSIN]
3. C1CN2N3CCCC23C1 (stereo unspecified)
4. O=C(O)CNS(=O)(=O)c1ccc(NC(=O)c2ccc(F)cc2)cc1
5. CC1=NN2C(=N)/C(=C/c3ccc(F)cc3)C(=O)N=C2S1

> 100 µM (inactive)
11.2 µM (inactive)
> 100 µM (inactive)
> 100 µM (inactive)
> 100 µM (inactive)

Please give GI50 for each item listed below.
1. COC(=O)/C1=C/C=C\C[C@@]2(C)CC(c3ccoc3)OC(=O)[C@@H]2CC[C@H]1C (stereo partly specified)
2. C[C@@]1(Cc2ccccc2)C(=O)N2[C@@H](CO)C(c3ccccc3)O[C@]2(C)c2ccccc21 (stereo partly specified)

> 25 µM (inactive)
72.4 µM (inactive)

Please give GI50 for each item listed below.
1. N#Cc1sc2c(c1OC(=O)c1ccc(Cl)cc1)c(=O)n(-c1ccccc1)c(=S)n2-c1ccccc1
2. C/C(=N\NC(=O)c1cccnc1)c1cccc(/C(C)=N/NC(=O)c2cccnc2)n1

["19.2 µM (inactive)", "4.15 µM (inactive)"]

Please give GI50 for each item listed below.
1. Cc1ccc2nc(NC(=O)C(=O)C(C#N)c3ccc(Cl)cc3)sc2c1 (stereo unspecified)
2. O=C(OCc1ccccc1)N1N=NC2C3CC(OCc4ccccc4)(OCc4ccccc4)C(O3)C21 (stereo unspecified)
3. Nc1nc(Cl)cc(NCCCCCCCCCCNc2cc(Cl)nc(N)n2)n1
4. Cc1cc(C)c2c(c1)CC1(Cc3c(ccc(C)c3C)C1=O)C2=O (stereo unspecified)
5. Nc1c([N+](=O)[O-])cc2c3c(cccc13)CC2
6. O=[PH](O)c1ccccn1
7. COC(=O)/C=C(\C)CC/C=C(\C)CCC1OC1(C)C (stereo unspecified)

["> 50 µM (inactive)", "22.1 µM (inactive)", "0.301 µM (active)", "> 100 µM (inactive)", "91.6 µM (inactive)", "> 100 µM (inactive)", "11.3 µM (inactive)"]

Please give GI50 for each item listed below.
1. O=c1c2ccccc2nc(-c2ccc(Br)cc2)n1NC1OC(CO)C(O)C(O)C1O (stereo unspecified)
2. O=C1Cc2ccccc2N1/N=C\c1ccc(O)cc1
3. [N-]=[N+]=Nc1cc(=O)n(-c2ccccc2)c(=O)n1-c1ccccc1
4. CCN(CCO)C(=O)C1(c2ccccc2)CCCCC1

["> 100 µM (inactive)", "77.4 µM (inactive)", "> 100 µM (inactive)", "> 10 µM (inactive)"]

###

Could you please report measured GI50 for the items listed next?
system: COLO 205; assay: NCI tumour cell line growth inhibition, 48 h
Activity calls are given as the source filed them. No stated cut-off is given here; in the data, active = GI50 up to about 1.1 µM and inactive = higher.

Use these answered entries as a reference point.
molecule: O=c1c2ccccc2nc(-c2ccc(Br)cc2)n1NC1OC(CO)C(O)C(O)C1O (centres undefined)
measurement target: COLO 205
GI50: 59.8 µM (inactive)

molecule: CCOC(=O)c1oc2c(OC)ccc3c2c1CCC3
measurement target: COLO 205
GI50: > 100 µM (inactive)

molecule: COc1ccc(C(OCC2OC(n3cc(C)c(=O)[nH]c3=O)CC2n2cc(Cn3cc(F)c(=O)[nH]c3=O)nn2)(c2ccccc2)c2ccccc2)cc1 (centres undefined)
measurement target: COLO 205
GI50: 4.97 µM (inactive)

molecule: CC(C)(C)OC(=O)NC(Cc1ccc(OCc2ccccc2)cc1)C(=O)NC(COCc1ccccc1)C(=O)Oc1c(Cl)c(Cl)c(Cl)c(Cl)c1Cl (centres undefined)
measurement target: COLO 205
GI50: 18.7 µM (inactive)

molecule: COCC#C[C@@]1(O)CCCCC1CC(OC)OC (some centres undefined)
measurement target: COLO 205
GI50: > 100 µM (inactive)

molecule: COC[n+]1cc2cc(OC)c(OC)cc2c2ccc3cc(OC)c(OC)cc3c21
measurement target: COLO 205
GI50: > 100 µM (inactive)

Please give GI50 for each item listed below.
1. COC1CC(OS(=O)(=O)c2ccc([N+](=O)[O-])cc2)C(OC(=O)c2ccccc2)C(C)O1 (centres undefined)
2. CC1=C(C)C2(C#N)C(=O)N3C(=NC(c4ccco4)NC3c3ccco3)C2(C#N)C(c2ccco2)N1 (centres undefined)

["> 100 µM (inactive)", "> 100 µM (inactive)"]

Given the molecule O=S(=O)([N-]c1nc2ccccc2nc1-[n+]1ccccc1)c1ccccc1 , what is its reported GI50?
> 100 µM (inactive)

###

test system: HCC 2998; assay: NCI tumour cell line growth inhibition, 48 h
Calls of active or inactive are those of the source. No stated cut-off is given here; in the data, active = GI50 up to about 1.1 µM and inactive = higher.
property measured: GI50

Use these answered entries as a reference point.
compound: COc1ccc(N(C)C(=O)N(C)c2ccc([N+](=O)[O-])cc2)cc1
property measured: GI50
result: 33 µM (inactive)

compound: Cc1c(/C=N/N=C/c2[nH]c(C(=O)OC(C)(C)C)c(C)c2C)[nH]c(C(=O)OC(C)(C)C)c1C
property measured: GI50
result: > 100 µM (inactive)

compound: CCOC(=O)N/N=C(/N)c1cccc(Br)c1
property measured: GI50
result: > 100 µM (inactive)

compound: CCN(CC)Cc1ccc(C(=S)Nc2ccc(C)cc2)s1
property measured: GI50
result: 12.9 µM (inactive)

compound: COc1ccc(/C=N/n2c(C)n[nH]c2=O)c(OC)c1
property measured: GI50
result: > 100 µM (inactive)

Please give GI50 for each item listed below.
1. CCCCCCCCCCCC[C@@H](O)[C@H]1CC[C@H]([C@H](O)CC[C@H](O)[C@@H]2CC[C@@H](CCCCCCCC3=C[C@H](C)OC3=O)O2)O1
2. S=C(Cc1ccc2c(c1)Sc1ccccc1O2)N1CCOCC1

> 50 µM (inactive)
86.1 µM (inactive)

###

system: HL-60; assay: NCI tumour cell line growth inhibition, 48 h
Calls of active or inactive are those of the source. Rule as the data show it: active = GI50 up to about 1.1 µM and inactive = higher.
Respond only with the outcome that fits, drawn from 1 for active, -1 for inactive

Known results for compounds:
compound: CCCCCCc1cc2cc(C(=O)Nc3nc(C45CC6CC(CC(C6)C4)C5)cs3)c(=O)oc2cc1O
measurement target: HL-60
class: -1

compound: C=C[C@H]1CN2CCc3c([nH]c4c([C@@H]5CCCN5C)c(O)ccc34)[C@@H]2C[C@@H]1C[C@H]1c2[nH]c3ccccc3c2CCN1C
measurement target: HL-60
class: 1

compound: CC1=NC(=O)C(C)(c2ccccc2)N1CCc1ccccc1 (centres undefined)
measurement target: HL-60
class: -1

Dear colleague, could you share the recorded outcome for COc1ccc2c(c1)OCCC1=C2SCC2(C)CCN=C12 (centres undefined) when you have a moment?
-1

Dear colleague, could you share the recorded outcome for O=C1NC2(CCCCC2)C2CCCCC(O)C12 (centres undefined) when you have a moment?
-1

Dear colleague, could you share the recorded outcome for Nc1c([N+](=O)[O-])cc2c3c(cccc13)CC2 when you have a moment?
-1

Dear colleague, could you share the recorded outcome for COC(=O)c1cc2c(s1)C(=O)c1ccccc1-2 when you have a moment?
-1

Dear colleague, could you share the recorded outcome for CCN(CC)CCOc1ccc(N2C(=O)c3cccc4cc([N+](=O)[O-])cc(c34)C2=O)cc1 when you have a moment?
-1

Dear colleague, could you share the recorded outcome for CN(C)CC(/C(Cc1ccccc1)=N\NC(=O)c1ccncc1)c1ccccc1 (centres undefined) when you have a moment?
-1

Dear colleague, could you share the recorded outcome for Nc1nc(Cl)c(C=O)c(NCC2(CO)CC(CCc3ccccc3)C2)n1 (centres undefined) when you have a moment?
-1

Dear colleague, could you share the recorded outcome for Oc1cc2c3c(c1)CCCN3CCC2 when you have a moment?
-1

Dear colleague, could you share the recorded outcome for O=C1CCC2COc3ccc(O)c1c32 (centres undefined) when you have a moment?
-1

Dear colleague, could you share the recorded outcome for C=C(C)C(=O)OC1C[C@H](COC(C)=O)C2CC=C(CO)C2C2OC(=O)C(=C)[C@H]12 (some centres undefined) when you have a moment?
-1
